system_name: T1, CD3 epsilon homodimer protein (UniProt P07766 23-126)
T1 construct: also called CD3 (CD3 epsilon)
test_description: SPR, antibody over immobilised CD3e homodimer;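 also: SPR at 25 °C with CD3 epsilon homodimer amine-coupled to a CM4 sensor chip and antibody flowed over as analyte in HBS-EP+ running buffer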
Label key: Met means KD ratio to GLS3000 under 2; Not met means KD ratio to GLS3000 of 2 or more.

binder: CE115HA000/GLS3000 H27dM (antibody, IgG1, name in Kabat numbering, V domains shown, one-arm IgG1) VH: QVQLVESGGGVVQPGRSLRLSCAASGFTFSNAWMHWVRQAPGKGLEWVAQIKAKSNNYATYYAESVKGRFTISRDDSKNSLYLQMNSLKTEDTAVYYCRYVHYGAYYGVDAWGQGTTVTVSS VL: DIVMTQSPLSLPVTPGEPASISCRSSQSLVMSNRNTYLHWYQQKPGQAPRLLIYKVSNRFSGVPDRFSGSGSGTDFTLKISRVEAEDVGVYYCGQGTQVPYTFGQGTKLEIK
classification: Not met
//
binder: CE115HA000/GLS3000 V94Y (antibody, IgG1, name in Kabat numbering, V domains shown, one-arm IgG1) VH: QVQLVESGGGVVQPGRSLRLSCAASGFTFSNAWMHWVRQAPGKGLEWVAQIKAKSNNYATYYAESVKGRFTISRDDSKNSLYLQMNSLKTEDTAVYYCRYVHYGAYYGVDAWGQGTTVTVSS VL: DIVMTQSPLSLPVTPGEPASISCRSSQSLVHSNRNTYLHWYQQKPGQAPRLLIYKVSNRFSGVPDRFSGSGSGTDFTLKISRVEAEDVGVYYCGQGTQYPYTFGQGTKLEIK
classification: Not met
//
binder: CE115HA000/GLS3000 P95D (antibody, IgG1, name in Kabat numbering, V domains shown, one-arm IgG1) VH: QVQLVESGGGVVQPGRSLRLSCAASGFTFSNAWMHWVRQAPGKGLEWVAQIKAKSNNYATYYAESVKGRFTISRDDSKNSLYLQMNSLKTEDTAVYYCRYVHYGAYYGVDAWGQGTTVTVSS VL: DIVMTQSPLSLPVTPGEPASISCRSSQSLVHSNRNTYLHWYQQKPGQAPRLLIYKVSNRFSGVPDRFSGSGSGTDFTLKISRVEAEDVGVYYCGQGTQVDYTFGQGTKLEIK
classification: Not met
//
binder: CE115HA000/GLS3000 V51G (antibody, IgG1, name in Kabat numbering, V domains shown, one-arm IgG1) VH: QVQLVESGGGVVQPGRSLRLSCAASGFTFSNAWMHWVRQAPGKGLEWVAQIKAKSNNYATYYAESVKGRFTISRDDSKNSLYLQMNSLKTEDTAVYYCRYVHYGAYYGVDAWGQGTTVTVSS VL: DIVMTQSPLSLPVTPGEPASISCRSSQSLVHSNRNTYLHWYQQKPGQAPRLLIYKGSNRFSGVPDRFSGSGSGTDFTLKISRVEAEDVGVYYCGQGTQVPYTFGQGTKLEIK
classification: Met
//
binder: CE115HA000/GLS3000 N30M (antibody, IgG1, name in Kabat numbering, V domains shown, one-arm IgG1) VH: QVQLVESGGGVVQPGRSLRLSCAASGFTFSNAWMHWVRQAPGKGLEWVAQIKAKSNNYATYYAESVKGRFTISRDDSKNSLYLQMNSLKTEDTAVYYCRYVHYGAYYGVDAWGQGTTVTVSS VL: DIVMTQSPLSLPVTPGEPASISCRSSQSLVHSNRMTYLHWYQQKPGQAPRLLIYKVSNRFSGVPDRFSGSGSGTDFTLKISRVEAEDVGVYYCGQGTQVPYTFGQGTKLEIK
classification: Met
